This document collects pKi values reported for purified human Factor XIa (Homo sapiens, UniProt P03951).
Hey, just a heads up that pKi is the negative log base 10 of the concentration in molar.

Example entries and their recorded answers appear below.
COC(=O)Nc1ccc2c(c1)NC(=O)C(C)CCCC(C(=O)N1CCC[C@@]3(C1)OC(=O)Nc1ccc(Cl)cc13)c1cc-2ccn1 (single isomer, unassigned) [Example 15a]
7.51
COC(=O)Nc1ccc2c(c1)NC(=O)C(C)CCCC(C(=O)N1CCC[C@@]3(C1)OC(=O)Nc1ccc(Cl)cc13)c1cc-2ccn1 (single isomer, unassigned) [Example 15c]
5.75
COC(=O)Nc1ccc2c(c1)NC(=O)CCCC[C@@H](C(=O)N1CCC[C@@]3(C1)OC(=O)Nc1ccc(Cl)c(F)c13)c1cc(F)cc-2c1 [Example 30b]
7.16
COC(=O)Nc1ccc2c(c1)NC(=O)CC/C=C/C[C@@H](C(=O)N1CCC[C@@]3(C1)OC(=O)Nc1ccc(Cl)c(F)c13)c1cc-2ccn1 [Example 21a]
7.23
COC(=O)Nc1ccc2c(c1)NC(=O)CCCCC[C@@H](C(=O)N1CC[C@@]3(C1)OC(=O)Nc1ccc(Cl)c(F)c13)c1cc-2ccn1 [Example 18a]
8.07
COC(=O)Nc1ccc2c(c1)NC(=O)CCCC[C@@H](C(=O)N1CC[C@@]3(C1)OC(=O)Nc1ccc(Cl)c(F)c13)c1nc-2c(C)[nH]1 [Example 13b]
9.22
COC(=O)Nc1ccc2c(c1)NC(=O)CCCC[C@H](C(=O)N1CCC[C@@]3(C1)OC(=O)Nc1ccc(Cl)cc13)c1nc-2c(Cl)[nH]1 [Example 7b]
5.74
COC(=O)Nc1ccc2c(c1)NC(=O)CCCCC(C(=O)N1CC[C@@]3(C1)OC(=O)Nc1ccc(Cl)c(F)c13)c1nc-2c[nH]1 (mixture of isomers) [Example 4]
9.07
O=C1CCCCC(C(=O)N2CCC[C@@]3(C2)OC(=O)Nc2ccc(Cl)c(F)c23)c2cc(ccn2)-c2cc3ccc(=O)[nH]c3cc2N1 (mixture of isomers) [Example 27]
7.89
CCOC(=O)C1CCCCC(C(=O)N2CCC[C@@]3(C2)OC(=O)Nc2ccc(Cl)c(F)c23)c2cc(ccn2)-c2cc(F)ccc2N1 (single isomer, unassigned) [Example 34a]
6.20

molecule COC(=O)Nc1ccc2c(c1)NC(=O)CCCCC[C@@H](C(=O)N1CCC[C@@]3(C1)OC(=O)Nc1ccc(Cl)cc13)c1cc-2ccn1 [Example 16b] , pKi observed: 6.55

pKi for COC(=O)Nc1ccc2c(c1)NC(=O)CCCCC[C@@H](C(=O)N1CCC[C@@]3(C1)OC(=O)Nc1ccc(Cl)c(F)c13)c1cc-2ccn1 [Example 19a] is 7.31

Values compiled from patent US10344039B2.
